These entries and their values trace back to the supplement of paper PMC7877785.

Collected self-splicing fitness (ln) values appear next to each entry.
- measurement-notes: self-splicing fitness, log relative to wild type (ln ratio); higher = more splicing; Tetrahymena group I intron in knt gene, E. coli kanamycin selection, DiMSum; sequences stand for … in CUCUCU…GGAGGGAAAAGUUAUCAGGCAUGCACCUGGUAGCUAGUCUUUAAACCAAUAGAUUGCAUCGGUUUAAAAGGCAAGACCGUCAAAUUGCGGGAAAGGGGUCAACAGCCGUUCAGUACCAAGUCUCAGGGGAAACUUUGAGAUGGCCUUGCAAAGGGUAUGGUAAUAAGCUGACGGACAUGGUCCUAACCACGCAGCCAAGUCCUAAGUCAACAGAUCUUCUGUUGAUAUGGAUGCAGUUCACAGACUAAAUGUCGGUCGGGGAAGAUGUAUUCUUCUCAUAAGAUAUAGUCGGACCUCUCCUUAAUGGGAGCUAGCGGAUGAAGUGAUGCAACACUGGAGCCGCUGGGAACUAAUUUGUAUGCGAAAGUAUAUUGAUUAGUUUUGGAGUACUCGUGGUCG;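 also: selection with 25 µg/mL kanamycin versus none on LB agar overnight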
- protocol-conditions: 30 °C
Could you respond with only the numeric value?

UCAGAGCAAUAUUACGGAUG : -3.87
UGCGAGCAAUAUUACGUUCA : -1.45
AAAAAGCAAUAUUACGCGCU : -0.379
UCAGAGCAAUAUUACGUCUA : -3.04
CUGCAGCAAUAUUACGCCUC : -4.25
CAAUAGCAAUAUUACGUUGU : -3.27

IN: I would be grateful if you could share the reported self-splicing fitness (ln) for "AUAGAGCAAUAUUACGGUCG" .
OUT: -1.65

IN: I would be grateful if you could share the reported self-splicing fitness (ln) for "CCACAGCAAUAUUACGACCA" .
OUT: -3.99

IN: I would be grateful if you could share the reported self-splicing fitness (ln) for "CCUAAGCAAUAUUACGUGGU" .
OUT: -4.74

IN: I would be grateful if you could share the reported self-splicing fitness (ln) for "GGGUAGCAAUAUUACGAAAC" .
OUT: -1.26

IN: I would be grateful if you could share the reported self-splicing fitness (ln) for "UAUCAGCAAUAUUACGUCCA" .
OUT: -0.388

IN: I would be grateful if you could share the reported self-splicing fitness (ln) for "AACGAGCAAUAUUACGUUGC" .
OUT: -4.01
